test: amyloid nucleation score (Sup35N fusion, yeast selection) (log enrichment); library NNK3; higher = more nucleation; inactive = no reads after selection;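 further: zero at mode of non-aggregating sequences after 7 days selection at 30°C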
reported metric: amyloid nucleation score

INSERT INTO results (substance, measurement) VALUES
  ('AWSGFE', 0.01),
  ('GHTANLTYALFMGDFSRAGI', 'inactive'),
  ('FVNISHMY', 'inactive'),
  ('FNVSTGCRWSWAPDHSPCQE', -0.058),
  ('AGGCFISARSIRNCAHMLSR', 'inactive'),
  ('RQVSPTVVCSIILSLPFDPC', 0.396),
  ('NTIGNNVKYETRCNQSV', 'inactive'),
  ('LKLTMSFMSQDLIIHVIDCS', 'inactive'),
  ('TFRVNMCNPLMLGYVLFWLD', 'inactive'),
  ('HKSVLFNTRSSCRTSVLIVR', 'inactive'),
  ('SCLWGKRLMFWCE', -0.528),
  ('TDRLGCSFELCAPTCKCAGV', 'inactive'),
  ('DSKQNYLIRVDRLFMECGLK', 'inactive'),
  ('VFLSICSEGTFCLGDLSGCV', 2.43),
  ('DGRAWRALRGPK', 'inactive'),
  ('HIVKKFPSPMRITWCGSPFQ', 'inactive'),
  ('RNVCMSEVGSVDKSSLLHGN', 'inactive');
